test system: Escherichia coli; assay: Antibacterial activity against Escherichia coli CAN-ICU 63074 after 24 hrs by macrobroth dilution method; type: functional; conditions: CAN-ICU 63074, 24 h
readout label: MIC (µg/mL)
Use µg/mL as the unit, but write only the number.

compound	MIC [µg/mL]
NCC[C@H](OC(=O)Nc1ccccc1)C(=O)N[C@@H]1C[C@H](N)[C@@H](C[C@H]2O[C@H](CN)[C@@H](OC(=O)Nc3ccccc3)[C@H](OC(=O)Nc3ccccc3)[C@H]2OC(=O)Nc2ccccc2)[C@H](OC(=O)Nc2ccccc2)[C@H]1O[C@H]1O[C@H](COC(=O)Nc2ccccc2)[C@@H](OC(=O)Nc2ccccc2)[C@H](N)[C@H]1OC(=O)Cc1ccccc1.O=C(O)C(F)(F)F	256

Consider now this further compound.
Ask | Using the record for CN(C)c1ccc(NC(=O)OC[C@H]2O[C@H](O[C@@H]3[C@@H](OC(=O)Nc4ccc(N(C)C)cc4)[C@H](O[C@H]4O[C@H](CN)[C@@H](OC(=O)Nc5ccc(N(C)C)cc5)[C@H](OC(=O)Nc5ccc(N(C)C)cc5)[C@H]4OC(=O)Nc4ccc(N(C)C)cc4)[C@@H](N)C[C@H]3N)[C@H](OC(=O)Nc3ccc(N(C)C)cc3)[C@@H](N)[C@@H]2OC(=O)Nc2ccc(N(C)C)cc2)cc1.O=C(O)C(F)(F)F , report its MIC.
Reply | 256

---

MIC values for the compounds below.
tested on: Staphylococcus epidermidis; assay: Antibacterial activity against Staphylococcus epidermidis […] after 24 hrs by macrobroth dilution method; type: functional
Use µg/mL as the unit, but write only the number.

Ask | Using the record for NC[C@@H]1O[C@H](O[C@H]2[C@@H](OC(=O)Nc3ccccc3)[C@H](O[C@@H]3[C@@H](OC(=O)Nc4ccccc4)[C@H](N)C[C@H](N)[C@H]3O[C@H]3O[C@H](CN)[C@@H](OC(=O)Nc4ccccc4)[C@H](OC(=O)Nc4ccccc4)[C@H]3N)O[C@@H]2COC(=O)Nc2ccccc2)[C@H](N)[C@@H](OC(=O)Nc2ccccc2)[C@@H]1OC(=O)Nc1ccccc1.O=C(O)C(F)(F)F , report its MIC.
Reply | 0.5

Ask | Using the record for NCC[C@H](OC(=O)Nc1ccccc1)C(=O)N[C@@H]1C[C@H](N)[C@@H](C[C@H]2O[C@H](CN)[C@@H](OC(=O)Nc3ccccc3)[C@H](OC(=O)Nc3ccccc3)[C@H]2OC(=O)Nc2ccccc2)[C@H](OC(=O)Nc2ccccc2)[C@H]1O[C@H]1O[C@H](COC(=O)Nc2ccccc2)[C@@H](OC(=O)Nc2ccccc2)[C@H](N)[C@H]1OC(=O)Cc1ccccc1.O=C(O)C(F)(F)F , report its MIC.
Reply | 2

Ask | Using the record for NC[C@@H]1O[C@@H](O[C@H]2[C@H](O)[C@@H](O[C@H]3O[C@H](CO)[C@@H](O)[C@H](N)[C@H]3O)[C@H](N)C[C@@H]2N)[C@@H](O)[C@H](O)[C@H]1O , report its MIC.
Reply | 2

Ask | Using the record for NC[C@H]1OC(O[C@H]2[C@H](OCc3ccccc3)[C@@H](O[C@H]3O[C@H](COCc4ccccc4)[C@@H](OCc4ccccc4)[C@H](N)[C@H]3OCc3ccccc3)[C@H](N)C[C@@H]2N)[C@H](OCc2ccccc2)[C@@H](OCc2ccccc2)[C@@H]1OCc1ccccc1.O=C(O)C(F)(F)F (some centres undefined) , report its MIC.
Reply | 4

---

MIC values for the compounds below.
test system: Escherichia coli; experiment: Antibacterial activity against Escherichia coli CAN-ICU 63074 after 24 hrs by macrobroth dilution method; type: functional; conditions: CAN-ICU 63074, 24 h
Use µg/mL as the unit, but write only the number.

Record excerpt, results attached:
compound	assay result
NC[C@@H]1O[C@H](O[C@H]2[C@@H](OC(=O)Nc3ccc(Cl)cc3)[C@H](O[C@@H]3[C@@H](OC(=O)Nc4ccc(Cl)cc4)[C@H](N)C[C@H](N)[C@H]3O[C@H]3O[C@H](CN)[C@@H](OC(=O)Nc4ccc(Cl)cc4)[C@H](OC(=O)Nc4ccc(Cl)cc4)[C@H]3N)O[C@@H]2COC(=O)Nc2ccc(Cl)cc2)[C@H](N)[C@@H](OC(=O)Nc2ccc(Cl)cc2)[C@@H]1OC(=O)Nc1ccc(Cl)cc1.O=C(O)C(F)(F)F	256
NC[C@@H]1O[C@H](O[C@H]2[C@@H](OCc3ccc(Cl)cc3)[C@H](O[C@@H]3[C@@H](OCc4ccc(Cl)cc4)[C@H](N)C[C@H](N)[C@H]3O[C@H]3O[C@H](CN)[C@@H](OCc4ccc(Cl)cc4)[C@H](OCc4ccc(Cl)cc4)[C@H]3N)O[C@@H]2COCc2ccc(Cl)cc2)[C@H](N)[C@@H](OCc2ccc(Cl)cc2)[C@@H]1OCc1ccc(Cl)cc1.O=C(O)C(F)(F)F	64

Consider now this further compound.
Ask | # query: MIC | item NC[C@H]1OC(O[C@H]2[C@H](OCc3ccccc3)[C@@H](O[C@H]3O[C@H](COCc4ccccc4)[C@@H](OCc4ccccc4)[C@H](N)[C@H]3OCc3ccccc3)[C@H](N)C[C@@H]2N)[C@H](OCc2ccccc2)[C@@H](OCc2ccccc2)[C@@H]1OCc1ccccc1.O=C(O)C(F)(F)F (some centres undefined) | system: Escherichia coli
Reply | 16
